From: the RNAGym collection of RNA variant scans (doi:10.1002/anie.201605470)

B1: Osa-1-4 twister ribozyme (parent)
chain: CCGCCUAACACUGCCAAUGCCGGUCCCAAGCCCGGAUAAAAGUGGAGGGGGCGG

Variants of: B1
Assay explanation: self-cleavage, relative activity (ratio to wild type); higher = more cleavage; co-transcriptional
Each entry below carries its reported self-cleavage.
Provide a numeric answer; units are not to be included.

Observe how each entry below is paired with its result.
>>> measured_number("CCGCCUAACACUUCCAAUGCCGGUCCCAAGCCCGGAUGAAAGUGGAGGGGGCGG [A38G G13U]")
0.03
>>> measured_number("CCGCCUAAAACUGCUAAUGCCGGUCCCAAGCCCGGAUAAAAGUGGAGGGGGCGG [C15U C9A]")
0.05
>>> measured_number("CCGCCUAACACUGUCAAUGCCGGUCCCAAGCCCGGAUAAAAUUGGAGGGGGCGG [C14U G42U]")
0.03
>>> measured_number("CCGCCUAACACUGCCAAUGCCGGUCCCAAGCCCGGAUGAAAGUGGAGGGGGAGG [A38G C52A]")
1.02
>>> measured_number("CCGCCUAACACUGCCAAUGCCGGCCCCAAGCCCGGAUAAAAGUGGAGGGGGCAG [G53A U24C]")
0.08
>>> measured_number("CCGCCUAACACUGCCAAUGCCGGUCCCAAGCCCGGAAAAAAGUGAAGGGGGCGG [G45A U37A]")
0.25
>>> measured_number("CCGCCUAACACGGCCAAUACCGGUCCCAAGCCCGGAUAAAAGUGGAGGGGGCGG [G19A U12G]")
0.13
>>> measured_number("CCGCCUAACACUGCCAAUGGCGGUCCCAAGCCCGGAUAAAAGUGGAAGGGGCGG [C20G G47A]")
0.05
>>> measured_number("CCGCCUAACACUGCCAAUGCCGGUCCCAAGCCCGGAUAAAAGCGGCGGGGGCGG [A46C U43C]")
0.05
>>> measured_number("CCGCCUAACCCUGCCAAUGCUGGUCCCAAGCCCGGAUAAAAGUGGAGGGGGCGG [A10C C21U]")
0.06

Entry under review: CCGCCUAACACUGCCAAUGCAGGUCCCAAGCCCGGAUAAAAGUGGAGGGAGCGG [C21A G50A] . Reported self-cleavage?
0.85
